B1: HEEH_KT_rd6_3632 (parent)
chain: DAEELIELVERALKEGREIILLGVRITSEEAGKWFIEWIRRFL

variants of: B1; test: folding stability dG (cDNA display proteolysis); higher = more stable; conditions: PBS, room temperature
Property name: folding stability dG (kcal/mol)

1. A2T = 3.62
2. W38F = 3.65
3. L21H = 2.92
4. I26D = 2.97
5. F35K = 3.08
6. E18W = 3.78
7. W34L = 3.72
8. R17I = 3.85
9. E15H = 3.54
10. G16N = 3.58
11. G16Y = 3.67
12. V9Q = 2.7
13. E30R = 3.84
14. L43F = 4.01
15. R17S = 3.27
16. F35D = 2.6
17. K14I = 3.6
18. V9P = 2.93
19. R41N = 3.57
